For each of the compounds below, state its IC50.
System: T47D (Ductal carcinoma of breast)
experiment.summary: In vitro cytotoxicity, microculture tetrazolium (MTT) assay, T47D
Type: cell-based, Human
conditions: Homo sapiens, 48 h with compound, further 48 h, Table 1
Counter-ions that a name gives are not always drawn.
Give your result in µM as a bare value.

Fill in: IC50 of CC(=O)[C@H]1CC2=C(C(=O)c3ccccc3C2=O)[C@H](O[C@@H]2O[C@@H](C)[C@@H](O)[C@@H](NC(=O)C(F)(F)F)C2I)O1 (stereo partly shown) is ___
0.934

Fill in: IC50 of C=C(C)[C@H]1CC2=C(C(=O)c3ccccc3C2=O)[C@H](OC)O1 (relative stereo) is ___
2.36

Fill in: IC50 of CC(=O)C1CC2=C(C(=O)c3ccccc3C2=O)C(OCC2CCCNC2)O1 (mixture of isomers) [BCH2061, hydrochloride salt] is ___
0.27

Fill in: IC50 of CC(=O)C1CC2=C(CO1)C(=O)c1ccccc1C2=O (stereo not shown) is ___
36.4

Fill in: IC50 of COCC1(COC)CC2=C(C(=O)c3ccccc3C2=O)[C@H](O[C@H]2C[C@H](NC(=O)C(F)(F)F)[C@H](O)[C@H](C)O2)O1 is ___
18

* * *

For each of the compounds below, state its IC50.
Test system: SKOV3 (Ovarian adenocarcinoma)
experiment.summary: In vitro cytotoxicity, microculture tetrazolium (MTT) assay, SKOV3
Type: cell-based, Human
conditions: SKOV3 ovarian adenocarcinoma; 48 h with compound, further 48 h, MTT; Table 1
Give your result in nM as a bare value.

# returns recorded IC50 (system: SKOV3 (Ovarian adenocarcinoma)) for C=CC[C@@H]1CC2=C(C(=O)c3ccccc3C2=O)[C@@H](O[C@H]2C[C@H](NC(=O)C(F)(F)F)[C@H](O)[C@H](C)O2)O1 (mixture of isomers)
6000

# returns recorded IC50 (system: SKOV3 (Ovarian adenocarcinoma)) for COC1OC(C(=O)NCCCn2ccnc2)=CC2=C1C(=O)c1ccccc1C2=O (centres unmarked)
187

# returns recorded IC50 (system: SKOV3 (Ovarian adenocarcinoma)) for CC(NC(=O)C(F)(F)F)[C@H]1CC2=C(C(=O)c3ccccc3C2=O)[C@H](O[C@H]2C[C@H](O)[C@H](O)[C@H](C)O2)O1 (some centres unmarked)
3110

# returns recorded IC50 (system: SKOV3 (Ovarian adenocarcinoma)) for CC(=NO)[C@@H]1CC2=C(C(=O)c3ccccc3C2=O)[C@@H](O[C@H]2C[C@H](NC(=O)C(F)(F)F)[C@H](O)[C@H](C)O2)O1
2300

* * *

For each of the molecules below, state its log10(IC50).
Test system: HT 29 (Colon adenocarcinoma)
experiment.summary: In vitro cytotoxicity, microculture tetrazolium (MTT) assay, HT29
Format: cell-based, Human
conditions: Homo sapiens, HT-29, 48 h with compound, further 48 h, Table 1
// units: nM (pre-log); metric: IC50; scale: log10

Fill in: log10(IC50) of COC(=O)C1=CC2=C(CO1)C(=O)c1ccccc1C2=O is ___
4.10

Fill in: log10(IC50) of COC(=O)[C@@H]1CC2=C(C(=O)c3ccccc3C2=O)[C@@H](O[C@H]2C[C@H](NC(=O)C(F)(F)F)[C@H](O)[C@H](C)O2)O1 is ___
3.20

Fill in: log10(IC50) of C[C@@H]1O[C@@H](OC2OC(C#N)CC3=C2C(=O)c2ccccc2C3=O)C[C@H](NC(=O)C(F)(F)F)[C@@H]1O (mixture of isomers) is ___
3.13

Fill in: log10(IC50) of CC(=O)O[C@H]1[C@@H](I)[C@H](O[C@@H]2O[C@@H](C(C)=O)CC3=C2C(=O)c2ccccc2C3=O)O[C@@H](C)[C@H]1OC(C)=O is ___
0.20

Fill in: log10(IC50) of CC(=O)[C@H]1CC2=C(C(=O)c3ccccc3C2=O)[C@H](O[C@@H]2O[C@@H](C)[C@@H](O)[C@@H](O)[C@H]2I)O1 is ___
4.79

Fill in: log10(IC50) of CC(=O)O[C@H]1[C@@H](I)[C@H](O[C@H]2O[C@H](C(C)=O)CC3=C2C(=O)c2ccccc2C3=O)O[C@@H](C)[C@H]1OC(C)=O is ___
1.89

Fill in: log10(IC50) of CC(=O)[C@@]1(C)CC2=C(C(=O)c3ccccc3C2=O)[C@H](O[C@H]2C[C@H](NC(=O)C(F)(F)F)[C@H](O)[C@H](C)O2)O1 is ___
3.41

Fill in: log10(IC50) of CC(=O)[C@]1(C)CC2=C(C(=O)c3ccccc3C2=O)[C@H](O[C@H]2C[C@H](NC(=O)C(F)(F)F)[C@H](O)[C@H](C)O2)O1 is ___
4.02

Fill in: log10(IC50) of CO[C@@H]1O[C@H](C(=O)Nc2ccccc2)CC2=C1C(=O)c1ccccc1C2=O (relative stereo) is ___
3.08

Fill in: log10(IC50) of CC(=O)[C@@H]1CC2=C(C(=O)c3ccccc3C2=O)[C@@H](O[C@@H]2O[C@@H](C)[C@@H](O)[C@@H](NC(=O)C(F)(F)F)C2I)O1 (some centres unmarked) is ___
2.99

Fill in: log10(IC50) of CC(=O)O[C@@H]1[C@H](C)O[C@@H](OC2OC(C(C)=O)CC3=C2C(=O)c2ccccc2C3=O)C[C@@H]1OC(C)=O (mixture of isomers) is ___
2.31

Fill in: log10(IC50) of CC(C)C(=O)[C@@H]1CC2=C(C(=O)c3ccccc3C2=O)[C@@H](O[C@H]2C[C@H](NC(=O)C(F)(F)F)[C@H](O)[C@H](C)O2)O1 is ___
1.81

Fill in: log10(IC50) of CC(=O)[C@H]1CC2=C(C(=O)c3ccccc3C2=O)[C@H](O[C@H]2C[C@H](NC(=O)C(F)(F)F)[C@H](OC(=O)CBr)[C@H](C)O2)O1 is ___
0.84

Fill in: log10(IC50) of COC(=O)[C@@]1(C)CC2=C(C(=O)c3ccccc3C2=O)[C@H](O[C@H]2C[C@H](NC(=O)C(F)(F)F)[C@H](O)[C@H](C)O2)O1 is ___
3.41

Fill in: log10(IC50) of CC(=O)[C@@H]1CC2=C(C(=O)c3ccccc3C2=O)[C@@H](O[C@@H]2O[C@@H](C)[C@@H](O)[C@@H](O)[C@H]2I)O1 is ___
2.75

Fill in: log10(IC50) of COC(=O)C1=CC2=C(C(=O)c3ccccc3C2=O)C(OC)O1 (centres unmarked) is ___
4.20

Fill in: log10(IC50) of CC(=O)[C@H]1CC2=C(C(=O)c3ccccc3C2=O)[C@H](O[C@@H]2O[C@@H](C)[C@@H](O)[C@@H](NC(=O)C(F)(F)F)C2I)O1 (some centres unmarked) is ___
2.73

Fill in: log10(IC50) of CC[C@@H]1CC2=C(C(=O)c3ccccc3C2=O)[C@@H](O[C@H]2C[C@H](NC(=O)C(F)(F)F)[C@H](O)[C@H](C)O2)O1 is ___
4.34

Fill in: log10(IC50) of CC(C)[C@@H]1CC2=C(C(=O)c3ccccc3C2=O)[C@@H](O[C@H]2C[C@H](NC(=O)C(F)(F)F)[C@H](O)[C@H](C)O2)O1 is ___
4.15

Fill in: log10(IC50) of CC[C@H]1CO[C@H](O[C@H]2C[C@H](NC(=O)C(F)(F)F)[C@H](O)[C@H](C)O2)C2=C1C(=O)c1ccccc1C2=O is ___
4.05

Recorded values, source patent US5606037A.
